# TEST DESCRIPTION: total protein half-life in vivo (active degradation + dilution); higher = more stable protein
# CONDITION CONTEXT: E. coli NCM3722 delta-clpP delta-lon delta-hslV; growth: N-lim chemostat; doubling time 6 h
TEST READOUT: total protein half-life in vivo

Query: total protein half-life in vivo; subject: MAEKRNIFLVGPMGAGKSTIGRQLAQQLNMEFYDSDQEIEKRTGADVGWVFDLEGEEGFRDREEKVINELTEKQGIVLATGGGSVKSRETRNRLSARGVVVYLETTIEKQLARTQRDKKRPLLHVETPPREVLEALANERNPLYEEIADVTIRTDDQSAKVVANQIIHMLESN [P0A6D7] 4.84 h

So what does the record say about total protein half-life in vivo for `MTWLPLNPIPLKDRVSMIFLQYGQIDVIDGAFVLIDKTGIRTHIPVGSVACIMLEPGTRVSHAAVRLAAQVGTLLVWVGEAGVRVYASGQPGGARSDKLLYQAKLALDEDLRLKVVRKMFELRFGEPAPARRSVEQLRGIEGSRVRATYALLAKQYGVTWNGRRYDPKDWEKGDTINQCISAATSCLYGVTEAAILAAGYAPAIGFVHTGKPLSFVYDIADIIKFDTVVPKAFEIARRNPGEPDREVRLACRDIFRSSKTLAKLIPLIEDVLAAGEIQPPAPPEDAQPVAIPLPVSLGDAGHRSS` ? 4.85 h

Request the reported total protein half-life in vivo associated with `MFPFRRNVLAFAALLALSSPVLAGKLAIVIDDFGYRPHNENQVLAMPSAISVAVLPDSPHAREMATKAHNSGHEVLIHLPMAPLSKQPLEKNTLRPEMSSDEIERIIRSAVNNVPYAVGINNHMGSKMTSNLFGMQKVMQALERYNLYFLDSVTIGNTQAMRAAQGTGVKVIKRKVFLDDSQNEADIRVQFNRAIDLARRNGSTIAIGHPHPATVRVLQQMVYNLPPDITLVKASSLLNEPQVDTSTPPKNAVPDAPRNPFRGVKLCKPKKPIEPVYANRFFEVLSESISQSTLIVYFQHQWQGWGKQPEAAKFNASAN` 5.42 h
